test system: UACC-257 melanoma; assay: NCI tumour cell line growth inhibition, 48 h
Each entry below carries its recorded TGI.

Take a look at these entries with their results.
• O=C(/C=C/c1ccccc1)NNC(=O)c1c(Cl)c(Cl)c(Cl)c(Cl)c1-c1nc2ccccc2[nH]1 = 99.1 µM
• c1ccc(CN2CCC3(CC2)SSC2(CCN(Cc4ccccc4)CC2)S3)cc1 = > 100 µM
• O=c1ccn(C2CC(O)C(CO)O2)c(=O)[nH]1 (stereo not given) = > 5000 µM
• COc1ccc(C2CC(C)(O)Oc3cc4c(cc32)OCO4)cc1 (stereo not given) = > 100 µM

GET /values?readout=TGI&system=UACC-257 melanoma&item= "CN(C)C(=S)/N=c1\ssc(=S)n1Cc1cccnc1"
> 95.5 µM

----------
test system: MOLT-4 leukemia; assay: NCI tumour cell line growth inhibition, 48 h
Each entry gets class 0 if its TGI stays under 30 µM, and class 1 if its TGI is 30 µM or above.

Exam item: decide whether the reported TGI for O=S(Nc1ccccc1)c1cccc(Cl)c1 (configuration not stated) is at least 30 µM.
class 1

Confirm if TGI reported for the molecule "O=c1oc(Cl)c(Cl)c2ccccc12" is 30 µM or above.
class 1

Quick check, TGI >= 30 µM? CC(C)CCCC(C)[C@H]1CCC2[C@@H]3CCC4Nc5nocc5C[C@]4(C)C3CC[C@@]21C (some centres not stated)
class 1

Form field: TGI at least 30 µM? Entry: CC1OC(OC2C[C@](O)(C(=O)CF)Cc3c(O)c4c(c(O)c32)C(=O)c2ccccc2C4=O)CC(N)C1O (some centres not stated)
class 0

Is reported TGI greater than or equal to 30 µM here: "CCN(CC)/C(Sc1ccccc1)=C(\C(Cl)=C(Cl)Cl)[N+](=O)[O-]"
class 1

----------
test system: SW-620 colon; test: NCI tumour cell line growth inhibition, 48 h
Listing: TGI of selected compounds

• CC(C)C1=CC23CCC4C(C)(C(=O)O)CCCC4(C)C2CC1C1C(=O)N(c2ccccc2N2C(=O)C4C5CC6C7(C)CCCC(C)(C(=O)O)C7CCC6(C=C5C(C)C)C4C2=O)C(=O)C13 (stereo not drawn) = 30.6 µM
• CC(=O)C1=C(C)N(c2ccc(C)cc2)C2(O)C=CC(=O)C3C(=O)N(c4ccccc4)C(=O)C132 (stereo not drawn) = 22.7 µM
• COC(=O)C1CN=CN1CCc1ccccc1 (stereo not drawn) = > 100 µM
• CN1CCN(CCOc2ccc(-c3cnc4c(-c5ccc(C(F)(F)F)cc5)cnn4c3)cc2)CC1 = 3.27 µM
• O=[N+]([O-])c1ccc2c(c1)Cc1cc(N=Cc3ccc4c(c3)OCO4)ccc1-2 = > 100 µM
• C=CCC1(O)c2ccccc2C(=O)c2c(NCCN(CC(=O)OCC)CC(=O)OCC)cccc21 (stereo not drawn) = > 100 µM
• COC(=O)[C@@]12OC[C@]34[C@H]([C@@H](O)[C@@H]1O)[C@@]1(C)[C@H](O)C(=O)C=C(C)[C@@H]1C[C@H]3OC(=O)C(OC(C)=O)[C@@H]24 (stereo partly drawn) = 0.128 µM
• O=C(NC(=O)c1cn(CCN(CCO)C(=O)NCCCCCCNC(=O)N(CCO)CCn2cc(C(=O)NC(=O)OCc3ccccc3)c(=O)[nH]c2=O)c(=O)[nH]c1=O)OCc1ccccc1 = > 100 µM

# query: TGI of entry "C=CCc1cccc2cc(C(=O)Nc3ccccc3)c(=N)oc12"
> 100 µM

Look up TGI: "CC1=CC(=O)c2ccccc2C1=O"
4.82 µM

Look up TGI for this compound: "O=c1ccn([C@@H]2C[C@@H]2CO)c(=O)[nH]1"
> 100 µM

Requested read-out: TGI. Entry: C=CCOC(=O)NC1C(OC(C)[C@@H](NC(=O)OCc2ccccc2)C(=O)OC(C)(C)C)OC(COC(C)=O)C(OC(C)=O)C1OC(C)=O (stereo partly drawn)
> 100 µM

Which TGI is reported for this compound? COC(=O)/C(=N\NC(=O)C[N+](C)(C)C)C(C(=O)OC)C(=O)C(=O)Nc1ccccc1C(N)=O (stereo not drawn)
> 100 µM

----------
system: 786-0 renal; assay: NCI tumour cell line growth inhibition, 48 h
# maps each entry to its TGI

• C[C@H](CCC(=O)O)[C@H]1CC[C@@]2(C)[C@@H]3C(=O)C[C@H]4C(C)(C)[C@@H](O)CC[C@]4(C)[C@H]3C(=O)C[C@]12C = > 100 µM
• COc1cc2c(cc1OC)C(=O)/C(=C/c1ccc(Cl)cc1)CC2 = > 10 µM
• COC1=CC(c2ccc[nH]2)=N/C1=C\c1[nH]c(C)c(C(=O)CCCCC(=O)NC(C)(C)C)c1C = 3.36 µM

Name the recorded TGI for CCC12CCCN(Cc3ccccc3)C1c1c(n(C)c3ccccc13)C(C(=O)OC)C2 (stereo not drawn) .
> 239 µM

# TGI lookup, item "CC[C@@H]1CC[C@@H]2[C@H](CC[C@]3(C)[C@@H](OS(=O)(=O)c4ccc(C)cc4)CC[C@@H]23)[C@H]1COS(=O)(=O)c1ccc(C)cc1"
> 100 µM

Tell me the measured TGI of Nc1nc(SCc2ccc([N+](=O)[O-])cc2)nc2c1ncn2C1OC(CO)C(O)C1O (stereo not drawn) , please.
> 100 µM

// TGI lookup, key: "O=[N+]([O-])c1ccc2c(c1)Cc1cc(N=Cc3ccc4c(c3)OCO4)ccc1-2"
> 100 µM

// query TGI value for entry CC(=O)OCC1OC(OC2CC3C(C)(C)C(OC(C)=O)CC[C@]3(C)C3CCC45CC4(CCC5[C@@H](C)C[C@H](O)C(O)C(C)(C)O)[C@]23C)C(O)C(O)C1O (stereo partly drawn)
> 10 µM

----------
tested on: NCI-H460 lung
The categories you may choose from are T (active), F (inactive)

Study these solved cases before continuing.
* Cc1cc(O)c(C2=NN(c3ccc(S(N)(=O)=O)cc3)C(c3ccccc3Cl)C2)cc1Cl (centres undefined) | F
* CN1CCN(CCOc2ccc(-c3cnc4c(-c5ccc(C(F)(F)F)cc5)cnn4c3)cc2)CC1 | F
* COc1cc2c(cc1O)CC[C@@H]1[C@@H]2CC[C@]2(C)[C@@H](OCCN(C)C)CC[C@@H]12 | T

Which result was noted for this compound in the test: "CNC(=O)c1cccc2cc(Oc3ccnc4cc(OCC5(N)CC5)c(OC)cc34)ccc12"
F

// return assay outcome for "COc1ccc(C(=O)/C=C/c2cccc([N+](=O)[O-])c2)c(OC)c1"
F

For "O=C(Cn1c(=O)c(-c2ccccc2)nc2ccccc21)Nc1ccc(F)cc1" , which call appears in the assay record?
F

# fetch the recorded call for CCC1CN2C(=N1)c1ccccc1-c1cc(Cl)ccc12 (centres undefined) here
F

Answer briefly: the call reported for CC1OC(n2c3ccccc3c3c4c(c5c6ccccc6[nH]c5c32)C(=O)N(CCN[C@@H]2CCC[C@H]2N)C4=O)CC(O)C1O (some centres undefined) in this assay.
F

Recorded test outcome, item "COc1cccc(C2=C(c3c(C)n(C)c4ccccc34)C(=O)NC2=O)c1"
F

----------
Collected TGI values appear next to each entry.
system: UACC-62 melanoma; assay: NCI tumour cell line growth inhibition, 48 h

Item "O=CN/C=C/c1cccc(O)c1" has what recorded TGI?
63.3 µM

Entry CC(C)(C)c1cc(C2=NNC(c3ccccc3)C2)cc(C(C)(C)C)c1O (stereo unspecified) has what TGI?
28 µM

Entry COC1OC(CBr)C(OC(=O)c2ccccc2)C(O)C1Br (stereo unspecified) : reported TGI = ?
> 100 µM

What value of TGI has been recorded for this entry: "O=C1NCc2ccccc2S(=O)(=O)n2cccc21"
> 100 µM

Entry CCOC1=C2C(=O)OC(=O)C2C2CCCCC2=C1 (stereo unspecified) has what TGI?
> 100 µM

// TGI lookup, key: "COc1ccc2c(c1)[n+]([O-])c(-c1ccc(OC)c(OC)c1)c(N)[n+]2[O-]"
> 100 µM

Please report the recorded TGI for CCOC(=O)c1c(N)sc2c1C(C)(C(=O)OCC)CC2 (stereo unspecified) .
> 100 µM

For CCOP(=O)(OCC)C(Nc1ccc(Br)cc1)c1cccc([N+](=O)[O-])c1 (stereo unspecified) , what is its reported TGI?
29.6 µM

Value lookup for TGI; key = CC12CC3OC(=O)C1COC14OC5(C2C1=O)C(O)(CCC1C4CC(O)C2(O)CC=CC(=O)C12C)C(=O)OC35C (stereo unspecified)
> 100 µM

Recorded TGI of "COc1cc2c(cc1OCCCCN1C(=O)c3cccc4cccc(c34)C1=O)N=C[C@@H]1CCCN1C2=O" , please.
39.9 µM

Item under review: C=CCC(N(C)C(=O)[C@H](Cc1ccccc1)NC(=O)OCc1ccccc1)P(=O)(Oc1ccccc1)Oc1ccccc1 (stereo partly specified) . Reported TGI?
> 100 µM

FYI, the data here is from PubChem BioAssay (NCI).
